Test system: CP247
Assay: qHTS profiling for inhibitors of Plasmodium falciparum proliferation (AID 504749); further: nearly all actives have a fitted effect of over 60% in size
Conditions: P. falciparum in erythrocytes, SYBR Green DNA, 72 h; series mostly up to 28.7 µM
Results filed as inconclusive are left out. Activity calls are given as the source filed them. The call rests on the fitted dose curve; in most records, active means well fitted inhibition curve with a large enough effect; inconclusive means small, poorly fitted or top-dose-only effect; inactive means flat fitted curve, though single readings scatter.
One label from this list, please: TRUE for active, FALSE for inactive

Example entries begin here.
[[record]]
molecule = "COC(=O)C(c1ccccc1)C1CCCCN1 (stereo not given)"
group = "FALSE"

[[record]]
molecule = "CCC1(c2ccccc2)C(=O)N(COC)C(=O)N(COC)C1=O"
group = "FALSE"

[[record]]
molecule = "C[C@]12CCC(=O)C=C1CC[C@@H]1[C@@H]2CC[C@]2(C)C(=O)CC[C@@H]12"
group = "FALSE"

[[record]]
molecule = "CN1C[C@H](C(=O)N[C@]2(C)O[C@@]3(O)[C@@H]4CCCN4C(=O)[C@H](Cc4ccccc4)N3C2=O)C=C2c3cccc4[nH]cc(c34)C[C@H]21"
group = "TRUE"


Okay, next one:
Task: Please share the test call associated with O=c1[nH]oc2c1CCNC2 .
Output: FALSE

---

System: W2
Experiment: qHTS profiling for inhibitors of Plasmodium falciparum proliferation (AID 504749); further: nearly all actives have a fitted effect of over 60% in size
Details: P. falciparum in erythrocytes, SYBR Green DNA, 72 h; series mostly up to 28.7 µM
Inconclusive results are not listed. Active and inactive are the calls of the source. Calls come from the whole dose curve; as a rule, active = well fitted inhibition curve with a large enough effect; inconclusive = small, poorly fitted or top-dose-only effect; inactive = flat fitted curve, though single readings scatter.
Log the outcome using a class from T for active, F for inactive

Field: example entries. Status: answers known.
[[record]]
compound = "CN1C(=O)C(O)N=C(c2ccccc2)c2cc(Cl)ccc21 (stereo not given)"
group = "F"

[[record]]
compound = "Clc1cccc(SC2CCNCC2)n1"
group = "F"

[[record]]
compound = "CC(C)(C)NCC(O)c1ccccc1Cl (stereo not given)"
group = "T"

[[record]]
compound = "NCCc1ccc(O)cc1"
group = "F"

[[record]]
compound = "Nc1ccccc1C(=O)O"
group = "F"


Task: I'd appreciate the recorded outcome for O=C1CN=C(c2ccccc2)c2cc([N+](=O)[O-])ccc2N1 from this test.
Output: F

Task: So what was the verdict on COC(=O)C(c1ccccc1)C1CCCCN1 (stereo not given) in this test?
Output: T

Task: Any idea what this test logged for C=C(C)[C@H]1CN[C@H](C(=O)O)[C@H]1CC(=O)O ?
Output: F

Task: Could you please tell me the result logged for CCC(C)(C)c1ccc(O)cc1 in this assay?
Output: F

Task: Test call, this compound: COP(=S)(OC)SCN1C(=O)c2ccccc2C1=O
Output: F

---

Listed molecules paired with reported activity change, negative = inhibition
Test: qHTS Assay for Lipid Storage Modulators (AID 1519); further: on the % scale 0 is the no-effect control and ±100 the full control effect
Conditions: Drosophila S3 cells, BODIPY lipid droplet/cell ratio, laser cytometry; at 57.5 µM (top of the series); cells loaded with oleic acid
Results filed as inconclusive are left out.
Your answer should be a plain number; it is taken to be in %.

[[record]]
molecule = "Cc1ncsc1CCCl"
data_value = 4.7

[[record]]
molecule = "Cn1c(=O)c2[nH]cnc2n(C)c1=O"
data_value = 8.67

[[record]]
molecule = "C[C@]12CCC(=O)C=C1CC[C@@H]1[C@@H]2CC[C@]2(C)C(=O)CC[C@@H]12"
data_value = 0.917

[[record]]
molecule = "NC(=O)c1cc([N+](=O)[O-])cc([N+](=O)[O-])c1"
data_value = 2.42

[[record]]
molecule = "Clc1cccc(SC2CCNCC2)n1"
data_value = -5.67


Task: Please indicate activity change, negative = inhibition recorded for O=C1c2ccccc2C(=O)c2ccccc21
Output: 11.7

Task: Give activity change, negative = inhibition for the following molecule: NC(=O)CS(=O)C(c1ccccc1)c1ccccc1 (configuration not stated)
Output: 4.67

Task: Name the recorded activity change, negative = inhibition of the molecule listed here: COP(=S)(OC)Oc1ccc(SC)c(C)c1
Output: 5.63

---

Assay: qHTS for identification of novel therapeutic agents for treatment of microphthalmiaassociated transcription factor (MiT) renal cell carcinoma (RCC) (AID 1963991);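 further: curves scaled with 100% = DMSO viability and 0% = empty wells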
Conditions: TFE3-RCC viability, CellTiter-Glo, 48 h; measured here: UOK124 Z-AUC; stronger effect = lower value
Inconclusive results are not listed.
recorded-metric: z-score
Lab note: write the figure by itself, no unit.

[[record]]
molecule = "CC(C)C[C@H](CN)CC(=O)O"
data_value = 0.851

[[record]]
molecule = "O=P1(N(CCCl)CCCl)NCCCO1 (stereo not given)"
data_value = 0.953

[[record]]
molecule = "COc1cc(OC)c(OC)cc1C=O"
data_value = 0.514


Task: Output measured z-score for this item: CN1C(=O)CCS(=O)(=O)C1c1ccc(Cl)cc1 (stereo not given)
Output: 0.189

Task: Determine from records and report z-score for CC(NC(C)(C)C)C(=O)c1cccc(Cl)c1 (stereo not given)
Output: 0.615

---

Test system: HACAT
Assay: qHTS assay to identify novel small-molecules to repurpose for Merkel cell carcinoma treatment (AID 1296009); further: nearly all actives have a fitted effect of over 60% in size
Conditions: MCC and control cell lines, CellTiter-Glo viability, 72 h; at 44.8 µM (top of the series) unless noted
Records with an inconclusive call do not appear. Activity calls are given as the source filed them. Calls follow the shape of the dose curve; as a rule, active = well fitted inhibition curve with a large enough effect; inconclusive = small, poorly fitted or top-dose-only effect; inactive = flat fitted curve, though single readings scatter.
recorded-metric: outcome

Example entries begin here.
[[record]]
compound = "CC(Cc1ccccc1)NCCn1cnc2c1c(=O)n(C)c(=O)n2C (stereo not drawn)"
data_value = "inactive [at 92 µM]"

[[record]]
compound = "CC(C)N(CCC(C(N)=O)(c1ccccc1)c1ccccn1)C(C)C (stereo not drawn)"
data_value = "inactive"

[[record]]
compound = "CC(NC(C)(C)C)C(=O)c1cccc(Cl)c1 (stereo not drawn)"
data_value = "inactive"

[[record]]
compound = "CCN[C@H](C)Cc1cccc(C(F)(F)F)c1"
data_value = "inactive [at 92 µM]"


Task: Recall the reported outcome of Nc1ccccc1C(=O)O on HACAT and write it down.
Output: inactive

Task: Report value only: outcome, HACAT, CNCC(=O)c1ccc(O)c(O)c1
Output: inactive

Task: Determine reported outcome for COc1cccc(C(=O)CCN[C@@H](C)[C@H](O)c2ccccc2)c1 ; test system: HACAT.
Output: inactive

Task: Provide outcome, system HACAT, entry CCCOC(=O)c1cncn1C(C)c1ccccc1 (stereo not drawn)
Output: inactive

---

Assay: Quantitative High-Throughput drug screen in 47 multiple myeloma cell lines against the NCATS MIPE library collection: Karpas620_DSMZ cell viability assay (AID 1918959); further: nearly all actives have a fitted effect of over 30% in size
Conditions: Karpas620 myeloma viability, CellTiter-Glo ATP luminescence, 48 h; series mostly up to 45.8 µM
Inconclusive results are not listed. Activity calls are given as the source filed them. The call rests on the fitted dose curve; in most records, active means well fitted cell-killing curve with a large enough effect; inconclusive means small, poorly fitted or top-dose-only effect, or effect the other way; inactive means no such curve, though single readings can be large or run the other way.
Form entry, call: pick from T (active), F (inactive)

Use these answered entries as a reference point.
[[record]]
molecule = "CC(C)C[C@H](CN)CC(=O)O"
group = "F"

[[record]]
molecule = "CCC1(c2ccc(N)cc2)CCC(=O)NC1=O (stereo not drawn)"
group = "F"

[[record]]
molecule = "C[C@]12CC[C@@H]3c4ccc(OC(=O)N(CCCl)CCCl)cc4CC[C@H]3[C@@H]1CC[C@@H]2OP(=O)(O)O"
group = "F"


Task: Lab log entry: CC(NC(C)(C)C)C(=O)c1cccc(Cl)c1 (stereo not drawn) — outcome as called in the assay?
Output: F

Task: Entry O=C(O)CCCc1ccc(N(CCCl)CCCl)cc1 : call = ?
Output: F

Task: Please indicate how the test categorized CN1C(=O)COc2c(C(=O)NC3CN4CCC3CC4)cc(Cl)cc21 (stereo not drawn) .
Output: F

Task: What classification did C[C@]12CC[C@H]3[C@@H](CC[C@@]45O[C@H]4C(O)=C(C#N)C[C@]35C)[C@H]1CC[C@H]2O end up with in this test?
Output: F

Task: Tell me the assay call for O=P1(N(CCCl)CCCl)NCCCO1 (stereo not drawn) please.
Output: T

---

Details: Ebola virus entry assay, ratio channel
Activity calls are given as the source filed them.
recorded-metric: outcome

[[record]]
chem_smiles = "Clc1cccc(SC2CCNCC2)n1"
data_value = "inactive"

[[record]]
chem_smiles = "CC(=O)OCC(=O)[C@@]1(O)CC[C@H]2[C@@H]3CCC4=CC(=O)CC[C@]4(C)[C@H]3C(=O)C[C@@]21C"
data_value = "inactive"

[[record]]
chem_smiles = "CN[C@@H]1[C@H](O)[C@H](NC)[C@H]2O[C@@]3(O)C(=O)C[C@@H](C)O[C@H]3O[C@@H]2[C@H]1O"
data_value = "inactive"


---

System: CP203
Test: qHTS profiling for inhibitors of Plasmodium falciparum proliferation (AID 504749); further: nearly all actives have a fitted effect of over 60% in size
Conditions: P. falciparum in erythrocytes, SYBR Green DNA, 72 h; series mostly up to 28.7 µM
Results filed as inconclusive are left out. Active and inactive are the calls of the source. Calls come from the whole dose curve; as a rule, active = well fitted inhibition curve with a large enough effect; inconclusive = small, poorly fitted or top-dose-only effect; inactive = flat fitted curve, though single readings scatter.
Allowed answers: 1 for active, 0 for inactive

[[record]]
compound = "COC(=O)C(c1ccccc1)C1CCCCN1 (stereo unspecified)"
group = 0


Task: Record lookup: outcome of this test for CCC1(CC)C(=O)C=CNC1=O ?
Output: 0

Task: Recorded test outcome, item O=C1Nc2ccc(Cl)cc2C(c2ccccc2)=NC1O (stereo unspecified)
Output: 0
